pKi: −log10 of the molar value.
Record set of pKi for target or system UniProt:P47898.

Observed pKi on UniProt:P47898 for COc1ccccc1CNC(=N)Nc1ncccc1-c1ccc(F)cc1 [Example 63, acetate] , please. > 5.00

----------
target: h5-HT5A receptor (Homo sapiens, UniProt P47898)
Sequence (P47898 whole entry): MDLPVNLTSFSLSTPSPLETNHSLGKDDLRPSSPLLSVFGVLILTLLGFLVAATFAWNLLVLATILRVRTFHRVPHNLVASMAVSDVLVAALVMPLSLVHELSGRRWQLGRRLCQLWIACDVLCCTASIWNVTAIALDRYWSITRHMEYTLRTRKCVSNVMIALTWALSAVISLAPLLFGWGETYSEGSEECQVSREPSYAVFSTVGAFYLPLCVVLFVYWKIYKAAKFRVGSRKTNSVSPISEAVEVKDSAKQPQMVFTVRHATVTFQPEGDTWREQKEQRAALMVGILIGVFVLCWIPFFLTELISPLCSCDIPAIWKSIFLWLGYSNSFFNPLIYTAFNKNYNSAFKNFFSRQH
Reported values of Ki for individual entries

Please review the following examples before continuing.
molecule: COc1ccccc1CNC(=N)Nc1ncccc1-c1ccccc1 [Example 62, acetate]
assayed.system: h5-HT5A receptor (Homo sapiens, UniProt P47898)
Ki: < 100 nM
//
molecule: COc1ccccc1CNC(=N)Nc1ncc(C(F)(F)F)cc1Cl [Example 10, acetate]
assayed.system: h5-HT5A receptor (Homo sapiens, UniProt P47898)
Ki: < 10000 nM
//
molecule: N#Cc1ccc(NC(=N)NCc2ccccc2Cl)nc1 [Example 98, acetate]
assayed.system: h5-HT5A receptor (Homo sapiens, UniProt P47898)
Ki: < 300 nM

Next up:
Observed Ki on h5-HT5A receptor (Homo sapiens, UniProt P47898) for COc1cccc(OC)c1CNC(=N)Nc1cccc(C)n1 [Example 9] , please. < 100 nM
